Reference for the values: patent US6521654B2

Listed next: entries and their corresponding IC50.
# TESTED_TARGET: interaction between VCAM-1 and VLA-4 (Homo sapiens, UniProt P05556+P13612)
# Construct: supplied in their natural form as surface molecules on human U937 cells; The partner hVCAM-1(1-3)-IgG was made in house in transfected COS cells (ATCC CRL1651) and used as culture supernatant
# Sequence (P13612 34-1032): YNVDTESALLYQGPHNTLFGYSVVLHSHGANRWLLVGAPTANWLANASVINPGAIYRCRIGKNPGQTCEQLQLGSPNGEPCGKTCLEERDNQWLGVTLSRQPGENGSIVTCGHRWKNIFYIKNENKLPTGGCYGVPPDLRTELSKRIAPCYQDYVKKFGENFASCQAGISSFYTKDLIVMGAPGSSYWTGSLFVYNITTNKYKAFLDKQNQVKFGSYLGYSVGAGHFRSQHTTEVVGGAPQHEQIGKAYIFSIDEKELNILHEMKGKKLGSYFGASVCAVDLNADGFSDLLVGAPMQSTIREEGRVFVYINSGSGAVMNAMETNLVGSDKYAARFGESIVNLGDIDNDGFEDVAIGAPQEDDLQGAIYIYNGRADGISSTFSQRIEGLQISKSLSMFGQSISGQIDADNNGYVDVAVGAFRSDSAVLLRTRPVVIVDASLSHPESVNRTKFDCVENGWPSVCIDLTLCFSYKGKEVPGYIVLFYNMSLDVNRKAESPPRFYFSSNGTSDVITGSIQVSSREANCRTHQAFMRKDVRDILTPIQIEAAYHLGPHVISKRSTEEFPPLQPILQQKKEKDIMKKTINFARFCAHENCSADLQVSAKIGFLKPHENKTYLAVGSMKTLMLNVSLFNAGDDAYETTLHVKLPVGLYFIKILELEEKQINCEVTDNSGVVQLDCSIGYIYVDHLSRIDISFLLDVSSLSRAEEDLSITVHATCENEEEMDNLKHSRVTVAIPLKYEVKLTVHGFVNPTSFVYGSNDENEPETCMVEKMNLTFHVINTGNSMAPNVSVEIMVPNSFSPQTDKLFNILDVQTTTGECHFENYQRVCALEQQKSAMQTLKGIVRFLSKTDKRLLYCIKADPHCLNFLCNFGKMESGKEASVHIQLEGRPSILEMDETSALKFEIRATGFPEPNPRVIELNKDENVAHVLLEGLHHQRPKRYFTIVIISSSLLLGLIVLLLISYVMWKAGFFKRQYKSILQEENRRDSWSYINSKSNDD
# Sequence (P05556 21-798): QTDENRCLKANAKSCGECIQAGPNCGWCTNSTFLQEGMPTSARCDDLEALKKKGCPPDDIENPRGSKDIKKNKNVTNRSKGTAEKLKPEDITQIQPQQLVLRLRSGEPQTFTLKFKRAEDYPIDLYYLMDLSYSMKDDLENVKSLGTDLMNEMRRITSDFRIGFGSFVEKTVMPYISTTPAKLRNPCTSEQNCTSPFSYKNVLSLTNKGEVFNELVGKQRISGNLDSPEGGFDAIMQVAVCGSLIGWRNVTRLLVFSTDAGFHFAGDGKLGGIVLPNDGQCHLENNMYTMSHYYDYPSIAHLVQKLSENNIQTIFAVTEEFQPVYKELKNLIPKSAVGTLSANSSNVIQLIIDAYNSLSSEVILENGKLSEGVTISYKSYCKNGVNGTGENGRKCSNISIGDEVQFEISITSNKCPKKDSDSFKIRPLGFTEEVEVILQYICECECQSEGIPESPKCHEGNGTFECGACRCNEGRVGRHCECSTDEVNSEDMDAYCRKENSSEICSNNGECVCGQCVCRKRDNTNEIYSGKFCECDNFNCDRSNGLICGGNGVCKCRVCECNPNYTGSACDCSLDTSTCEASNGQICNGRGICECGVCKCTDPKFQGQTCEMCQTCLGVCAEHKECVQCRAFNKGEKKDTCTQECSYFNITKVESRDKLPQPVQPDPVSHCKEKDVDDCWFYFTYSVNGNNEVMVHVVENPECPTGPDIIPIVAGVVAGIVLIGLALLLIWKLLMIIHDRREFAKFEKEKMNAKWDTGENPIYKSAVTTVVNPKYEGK
# ASSAY_COMMENT: U937/VCAM-1 cell adhesion test (adhesion of U937 cells to hVCAM-1(1-3)-IgG)
# CONDITION_INFO: concentration leading to 50% inhibition of adhesion of human U937 cells (ATCC CRL 1593) to hVCAM-1(1-3)-IgG
# Description: The test method used for the activity of the compounds of the formula I on the interaction between VCAM-1 and VLA-4 is the assay described below which is specific for this interaction. The cellular binding components, i.e., the VLA-4 integrins, are supplied in their natural form as surface molecules on human U937 cells (ATCC CRL 1593). which belong to the leucocytes group. […]
Number first, unit second: that is the form wanted.

As a guide, the following entries are already answered.
>>> data_value("CC(C)C[C@@H](C(=O)N[C@@H](CC(=O)O)C(=O)N[C@H](C(=O)O)c1ccccc1)N1C(=O)N(Cc2ccc(NC(=O)Nc3ccccc3Cl)cc2)C(C)(C)C1=O [Example 62]")
"5 nM"
>>> data_value("Cc1ccccc1NC(=O)Nc1ccc(CN2CC(=O)N(CC(=O)N[C@H](C)CC(=O)O)C2=O)cc1 [Example 26]")
"2900 nM"

Okay, now this compound:
Query :: Need IC50, item Cc1ccccc1NC(=O)Nc1ccc(CN2C(=O)N([C@@H](CC(C)C)C(=O)N[C@@H](CC(=O)O)c3ccc4ccccc4c3)C(=O)C2(C)C)cc1 [Example 184]
Result :: 4 nM

----------
Listed next: entries and their corresponding pIC50.
# TESTED_TARGET: interaction between VCAM-1 and VLA-4 (Homo sapiens, UniProt P05556+P13612)
# Construct: supplied in their natural form as surface molecules on human U937 cells; The partner hVCAM-1(1-3)-IgG was made in house in transfected COS cells (ATCC CRL1651) and used as culture supernatant
# ASSAY_COMMENT: U937/VCAM-1 cell adhesion test (adhesion of U937 cells to hVCAM-1(1-3)-IgG)
# CONDITION_INFO: concentration leading to 50% inhibition of adhesion of human U937 cells (ATCC CRL 1593) to hVCAM-1(1-3)-IgG
Schema: pIC50 number; meaning minus log10 of the concentration expressed in molar units.

As a guide, the following entries are already answered.
>>> data_value("CC(C)C[C@@H](C(=O)N[C@@H](CC(=O)O)C(=O)N[C@H](C(=O)O)c1ccccc1)N1C(=O)N(Cc2ccc(NC(=O)Nc3ccccc3F)cc2)C(C)(C)C1=O")
8.64
>>> data_value("CCc1cccc(C)c1NC(=O)Nc1ccc(CN2C(=O)N(CC(=O)N[C@@H](CC(=O)O)c3ccccc3)C(=O)C2(C)C)cc1")
5.83

Okay, now this compound:
Query :: Need pIC50, item COc1cccc(C(CC(=O)O)NC(=O)C(CC(C)C)N2C(=O)N(Cc3ccc(NC(=O)Nc4ccccc4C)cc3)C(C)(c3ccccc3)C2=O)c1OC (stereo not drawn)
Result :: 7.60

----------
# TESTED_TARGET: interaction between VCAM-1 and VLA-4 (Homo sapiens, UniProt P05556+P13612)
# Construct: supplied in their natural form as surface molecules on human U937 cells; The partner hVCAM-1(1-3)-IgG was made in house in transfected COS cells (ATCC CRL1651) and used as culture supernatant
# ASSAY_COMMENT: U937/VCAM-1 cell adhesion test (adhesion of U937 cells to hVCAM-1(1-3)-IgG)
# CONDITION_INFO: concentration leading to 50% inhibition of adhesion of human U937 cells (ATCC CRL 1593) to hVCAM-1(1-3)-IgG
Listed next: entries and their corresponding pIC50.
Schema: pIC50 number; meaning minus log10 of the concentration expressed in molar units.

>>> data_value("Cc1ccccc1NC(=O)Nc1ccc(CN2C(=O)N(C(CC(C)C)C(=O)N[C@@H](CC(=O)O)C(=O)N[C@H](C(=O)OC(C)(C)C)c3ccccc3)C(=O)C2(C)c2ccccc2)cc1 (mixture of isomers) [Example 219]")
6.76
>>> data_value("Cc1ccc(NC(=O)Nc2ccc(CN3C(=O)N(CC(=O)N[C@@H](CC(=O)O)c4ccccc4)C(=O)C3(C)C)cc2)c(C)c1 [Example 43]")
6.13
>>> data_value("CC(C)CC(C(=O)N[C@@H](CC(=O)O)C(=O)N[C@H](C(=O)O)c1ccccc1)N1C(=O)N(Cc2ccc(NC(=O)Nc3ccccc3)cc2)C(C)(c2ccccc2)C1=O (mixture of isomers) [Example 1]")
8.40
>>> data_value("COc1ccc([C@H](CC(=O)O)NC(=O)C(CC(C)C)N2C(=O)N(Cc3ccc(NC(=O)Nc4ccccc4C)cc3)C(C)(c3ccccc3)C2=O)c(OC)c1 (mixture of isomers) [Example 189]")
7.30

Okay, now this compound:
Query :: Need pIC50, item Cc1ccccc1NC(=O)Nc1ccc(CN2C(=O)N(C(CC(C)C)C(=O)NC(CC(=O)O)c3ccc(CC(C)C)cc3)C(=O)C2(C)c2ccccc2)cc1 (centres unmarked) [Example 194]
Result :: 6.35

----------
# TESTED_TARGET: interaction between VCAM-1 and VLA-4 (Homo sapiens, UniProt P05556+P13612)
# Construct: supplied in their natural form as surface molecules on human U937 cells; The partner hVCAM-1(1-3)-IgG was made in house in transfected COS cells (ATCC CRL1651) and used as culture supernatant
# ASSAY_COMMENT: U937/VCAM-1 cell adhesion test (adhesion of U937 cells to hVCAM-1(1-3)-IgG)
# CONDITION_INFO: concentration leading to 50% inhibition of adhesion of human U937 cells (ATCC CRL 1593) to hVCAM-1(1-3)-IgG
RESULT_TYPE: IC50 (nM)
Write the number in nM without appending the unit.

>>> data_value("CC(C)C[C@@H](C(=O)N[C@@H](CC(=O)O)C(=O)NC1C2CC3CC(C2)CC1C3)N1C(=O)N(Cc2ccc(NC(=O)Nc3ccccc3)cc2)C(C)(C)C1=O (stereo partly drawn)")
6
>>> data_value("Cc1cccc(NC(=O)Nc2ccc(CN3C(=O)N(CC(=O)NC(C)CC(=O)O)C(=O)C3(C)C)cc2)c1C (stereo not drawn)")
490

Okay, now this compound:
Query :: Need IC50, item `COc1ccc([C@H](CC(=O)O)NC(=O)[C@H](CC(C)C)N2C(=O)N(Cc3ccc(NC(=O)Nc4ccccc4C)cc3)C(C)(C)C2=O)c(OC)c1`
Result :: 1.6

----------
# TESTED_TARGET: interaction between VCAM-1 and VLA-4 (Homo sapiens, UniProt P05556+P13612)
# Construct: supplied in their natural form as surface molecules on human U937 cells; The partner hVCAM-1(1-3)-IgG was made in house in transfected COS cells (ATCC CRL1651) and used as culture supernatant
# ASSAY_COMMENT: U937/VCAM-1 cell adhesion test (adhesion of U937 cells to hVCAM-1(1-3)-IgG)
# CONDITION_INFO: concentration leading to 50% inhibition of adhesion of human U937 cells (ATCC CRL 1593) to hVCAM-1(1-3)-IgG
pIC50: −log10 of the molar value.
Tag: Condition met if measured pIC50 is not below 7, Condition not met if it is.

Here are 5 molecules together with their reported answers.
>>> qualitative_label("CC1(C)C(=O)N(CC(=O)N[C@@H](CC(=O)O)C(=O)NC2C3CC4CC(C3)CC2C4)C(=O)N1Cc1ccc(NC(=O)Nc2ccccc2)cc1 (stereo partly drawn) [Example 24]")
"Condition met"
>>> qualitative_label("Cc1ccccc1NC(=O)Nc1ccc(CN2CC(=O)N(CC(=O)N[C@@H](CC(=O)O)c3ccccc3)C2=O)cc1 [Example 29]")
"Condition not met"
>>> qualitative_label("Cc1ccccc1NC(=O)Nc1ccc(CN2C(=O)N([C@@H](CC(C)C)C(=O)N[C@@H](CC(=O)O)C(=O)O)C(=O)C2(C)C)cc1 [Example 27]")
"Condition met"
>>> qualitative_label("Cc1ccccc1NC(=O)Nc1ccc(CN2C(=O)N([C@@H](CC(C)C)C(=O)N[C@@H](CC(=O)O)c3ccc(-c4ccccc4)cc3)C(=O)C2(C)C)cc1 [Example 185]")
"Condition met"
>>> qualitative_label("Cc1ccccc1NC(=O)Nc1ccc(CN2C(=O)N(C(CC(C)C)C(=O)NC(CC(=O)O)c3ccc(F)cc3)C(=O)C2(C)c2ccccc2)cc1 (stereo not drawn) [Example 216]")
"Condition met"

Query :: Assess whether reported pIC50 for Cc1ccccc1NC(=O)Nc1ccc(CN2C(=O)N([C@@H](CC(C)C)C(=O)NCCC(=O)O)C(=O)C2(C)C)cc1 [Example 16] sits at 7 or higher.
Result :: Condition met
